Numbers sourced from PubChem BioAssay AID1745844.

# Tested on: rodent lifetime carcinogenesis bioassay, tumor incidence TD50
# TEST DESCRIPTION: carcinogenic potency in animals, long-term in vivo studies, CPDB compilation (AID 1745844)
# MEASUREMENT CONTEXT: rat; strain Osborne-Mendel; both sexes; in feed; site: liver; lesion: carcinoma; dosed 104 weeks; study length 104 weeks
VALUE TYPE: TD50

Recorded TD50 (compound Cc1cc(C)c(N=Nc2c(O)c(S(=O)(=O)O)cc3cc(S(=O)(=O)O)ccc23)cc1C ): 7540 mg/kg/day

----------
# Test system: rodent lifetime carcinogenesis bioassay, tumor incidence TD50
# TEST DESCRIPTION: carcinogenic potency in animals, long-term in vivo studies, CPDB compilation (AID 1745844)
# MEASUREMENT CONTEXT: rat; strain Wistar; females; in feed; site: kidney; lesion: renal-cell carcinoma; dosed 96 weeks; study length 101 weeks
VALUE TYPE: TD50 (mg/kg/day)
// return numeric value only (unit: mg/kg/day, not printed)

Short answer on rodent lifetime carcinogenesis bioassay, tumor incidence TD50 for O=P(O)(OCC(Br)CBr)OCC(Br)CBr (stereo unspecified) , TD50: 1250

----------
# Test system: rodent lifetime carcinogenesis bioassay, tumor incidence TD50
# TEST DESCRIPTION: carcinogenic potency in animals, long-term in vivo studies, CPDB compilation (AID 1745844)
# MEASUREMENT CONTEXT: mouse; strain B6C3F1; males; inhaled; site: liver; lesion: hepatocellular adenoma + hepatocellular carcinoma + neoplastic nodule; dosed 13 weeks; study length 104 weeks
VALUE TYPE: TD50 (mg/kg/day)
Report as a plain number; the unit mg/kg/day is understood.

Per the records, this molecule ( C=CC=C ) has TD50 equal to 15.1

----------
# System: rodent lifetime carcinogenesis bioassay, tumor incidence TD50
# TEST DESCRIPTION: carcinogenic potency in animals, long-term in vivo studies, CPDB compilation (AID 1745844)
# MEASUREMENT CONTEXT: mouse; strain B6C3F1; females; in feed; site: subcutaneous tissue; lesion: sarcoma; dosed 104 weeks; study length 106 weeks
VALUE TYPE: TD50

TD50 in this record for OCC(CO)(CBr)CBr : 350 mg/kg/day

----------
# Test system: rodent lifetime carcinogenesis bioassay, tumor incidence TD50
# TEST DESCRIPTION: carcinogenic potency in animals, long-term in vivo studies, CPDB compilation (AID 1745844)
# MEASUREMENT CONTEXT: mouse; strain B6C3F1; males; in feed; site: all sites; lesion: systemic and localized lymphoma; dosed 100 weeks; study length 100 weeks
VALUE TYPE: TD50

For Cn1cnc([N+](=O)[O-])c1Sc1ncnc2nc[nH]c12 the compound record lists TD50 as 9.66 mg/kg/day

----------
# System: rodent lifetime carcinogenesis bioassay, tumor incidence TD50
# TEST DESCRIPTION: carcinogenic potency in animals, long-term in vivo studies, CPDB compilation (AID 1745844)
# MEASUREMENT CONTEXT: mouse; strain B6C3F1; males; by gavage; site: liver; lesion: hepatocellular carcinoma; dosed 105 weeks; study length 106 weeks
VALUE TYPE: TD50 (mg/kg/day)
Output spec: scalar in mg/kg/day, unitless text.

Per the records, this compound ( ClC(Br)Br ) has TD50 equal to 33.5

----------
# Tested on: rodent lifetime carcinogenesis bioassay, tumor incidence TD50
# TEST DESCRIPTION: carcinogenic potency in animals, long-term in vivo studies, CPDB compilation (AID 1745844)
# MEASUREMENT CONTEXT: mouse; strain B6C3F1; males; in feed; site: liver + thyroid gland; lesion: hepatocellular carcinoma + follicular-cell adenoma; dosed 103 weeks; study length 104 weeks
VALUE TYPE: TD50 (mg/kg/day)
Give just the number in mg/kg/day; leave the unit off.

// TD50 value for CNc1ccc(N(CCO)CCO)cc1[N+](=O)[O-] : 369

----------
# System: rodent lifetime carcinogenesis bioassay, tumor incidence TD50
# TEST DESCRIPTION: carcinogenic potency in animals, long-term in vivo studies, CPDB compilation (AID 1745844)
# MEASUREMENT CONTEXT: mouse; strain B6C3F1; males; oral dosing; site: liver; lesion: hepatoma; dosed 76 weeks; study length 76 weeks
Active and inactive are the calls of the source. How the calls were made is not given here.
Entries and their TD50

>>> result("CCCCCCCCCCCCN=C(N)N")
"19.4 mg/kg/day (inactive)"
>>> result("CN(C)C(=O)NC1CC2CC1C1CCCC21 (configuration not stated)")
"359 mg/kg/day (inactive)"
>>> result("CCCCN(CCCC)C(=S)[S-].CCCCN(CCCC)C(=S)[S-].[Zn+2]")
"680 mg/kg/day (inactive)"
>>> result("COC(C(=O)O)c1ccccc1 (configuration not stated)")
"227 mg/kg/day (inactive)"
>>> result("O=C1NCCN1")
"242 mg/kg/day (inactive)"

Attention now shifts to the item below.
What the record says about c1ccc2cc(Nc3ccc(Nc4ccc5ccccc5c4)cc3)ccc2c1 : TD50 is 59.4 mg/kg/day (inactive)

----------
# System: rodent lifetime carcinogenesis bioassay, tumor incidence TD50
# TEST DESCRIPTION: carcinogenic potency in animals, long-term in vivo studies, CPDB compilation (AID 1745844)
# MEASUREMENT CONTEXT: mouse; strain B6C3F1; females; inhaled; site: lung; lesion: alveolar/bronchiolar carcinoma + adenocarcinoma; dosed 83 weeks; study length 104 weeks
VALUE TYPE: TD50 (mg/kg/day)
Provide only the numeric value, understood in mg/kg/day.

Input C=CC=C . Output TD50: 23.9

----------
# Test system: rodent lifetime carcinogenesis bioassay, tumor incidence TD50
# TEST DESCRIPTION: carcinogenic potency in animals, long-term in vivo studies, CPDB compilation (AID 1745844)
# MEASUREMENT CONTEXT: mouse; strain Slc:ddY; males; in feed; site: kidney; lesion: several types; types named in the paper; dosed 78 weeks; study length 78 weeks
VALUE TYPE: TD50

Field TD50 (system: rodent lifetime carcinogenesis bioassay, tumor incidence TD50) for entry O=P(OCCCl)(OCCCl)OCCCl = 539 mg/kg/day

----------
# Test system: rodent lifetime carcinogenesis bioassay, tumor incidence TD50
# TEST DESCRIPTION: carcinogenic potency in animals, long-term in vivo studies, CPDB compilation (AID 1745844)
# MEASUREMENT CONTEXT: rat; strain Fischer 344; males; in feed; site: skin; lesion: squamous-cell carcinoma + squamous-cell papilloma; dosed 104 weeks; study length 105 weeks
VALUE TYPE: TD50 (mg/kg/day)
Numbers only here, please. The scale is mg/kg/day.

Notebook: OCC(CO)(CBr)CBr , TD50 read as 1130

----------
# Test system: rodent lifetime carcinogenesis bioassay, tumor incidence TD50
# TEST DESCRIPTION: carcinogenic potency in animals, long-term in vivo studies, CPDB compilation (AID 1745844)
# MEASUREMENT CONTEXT: mouse; strain Swiss; females; i.p.; site: any site (literature study); lesion: several types; types named in the paper; dosed 26 weeks; study length 78 weeks
VALUE TYPE: TD50

>>> result("O[C@H]([C@H](O)[C@@H](O)CBr)[C@H](O)CBr")
"2.45 mg/kg/day"
>>> result("O[C@@H]([C@H](O)[C@H](O)CBr)[C@H](O)CBr")
"7.67 mg/kg/day"

So, CN(N=O)C(=O)N[C@@H](C=O)[C@@H](O)[C@H](O)[C@H](O)CO ? Its TD50 was 0.486 mg/kg/day

----------
Overview of recorded TD50 for various compounds
# System: rodent lifetime carcinogenesis bioassay, tumor incidence TD50
# TEST DESCRIPTION: carcinogenic potency in animals, long-term in vivo studies, CPDB compilation (AID 1745844)
# MEASUREMENT CONTEXT: mouse; strain Swiss; males; i.p.; site: lung; lesion: several types; types named in the paper; dosed 26 weeks; study length 78 weeks

Worked cases, TD50 given:
>>> result("CN(C)N=Nc1nc[nH]c1C(N)=O")
"2.57 mg/kg/day"
>>> result("O[C@@H]([C@H](O)[C@H](O)CBr)[C@H](O)CBr")
"11.4 mg/kg/day"
>>> result("CNNCc1ccc(C(=O)NC(C)C)cc1")
"1.53 mg/kg/day"

So, O[C@H]([C@H](O)[C@@H](O)CBr)[C@H](O)CBr ? Its TD50 was 13.5 mg/kg/day

----------
# System: rodent lifetime carcinogenesis bioassay, tumor incidence TD50
# TEST DESCRIPTION: carcinogenic potency in animals, long-term in vivo studies, CPDB compilation (AID 1745844)
# MEASUREMENT CONTEXT: mouse; strain Swiss; males; i.p.; site: any site (literature study); lesion: malignant tumor; dosed 26 weeks; study length 78 weeks
VALUE TYPE: TD50 (mg/kg/day)
# value in mg/kg/day; strip the unit string

Illustrative cases are given below, each with its answer.
>>> numeric_result("CNNCc1ccc(C(=O)NC(C)C)cc1")
1.74
>>> numeric_result("O[C@@H]([C@H](O)[C@H](O)CBr)[C@H](O)CBr")
8.53
>>> numeric_result("CN(C)N=Nc1nc[nH]c1C(N)=O")
1.54

Please turn your attention to the following entry.
The recorded TD50 for entry O[C@H]([C@H](O)[C@@H](O)CBr)[C@H](O)CBr equals 15.2
